Below is a list of entries, each paired with its recorded MTS assay result, run 9 value.
System: MiaPaCa-2 cells
Assay: MTS assay of MiaPaCa2 cultures, single 50 μM dose
Format: cell-based, human
Details: MiaPaCa2, 50 μM, 24 hours, run 9

- COMPOUND: "CC(C)=CCC/C(C)=C/CC/C(C)=C/CC/C(C)=C/CO"
  TARGET_OF_ASSAY: "MiaPaCa-2 cells"
  MTS assay result, run 9: 0.183
- COMPOUND: "Cc1c(C)c2c(c(C)c1OC(=O)CCC(=O)O)CC[C@@](C)(CCC[C@H](C)CCC[C@H](C)CCCC(C)C)O2 [TS, tocopherol succinate]"
  TARGET_OF_ASSAY: "MiaPaCa-2 cells"
  MTS assay result, run 9: 0.214
- COMPOUND: "Cc1c(C)c2c(c(C)c1O)CC[C@@](C)(CCC[C@H](C)CCC[C@H](C)CCCC(C)C)O2"
  TARGET_OF_ASSAY: "MiaPaCa-2 cells"
  MTS assay result, run 9: 0.247
- COMPOUND: "CC(C)=CCC/C(C)=C/CC/C(C)=C/CC[C@]1(C)CCc2cc(O)c(C)c(C)c2O1"
  TARGET_OF_ASSAY: "MiaPaCa-2 cells"
  MTS assay result, run 9: 0.147

----------
System: SW1990 pancreatic cancer cells
Assay: MTS assay of SW1990 cultures, single 50 μM dose
Assay type: cell-based, human
Settings: SW1990, 50 μM, 48 hours
Entries and their rel amnt (relative value set to the control) values follow.
OBSERVATION_TYPE: rel amnt (relative value set to the control)

- MOLECULE: "Cc1c(O)cc2c(c1C)O[C@](C)(CCC[C@H](C)CCC[C@H](C)CCCC(C)C)CC2"
  ASSAY_VALUE: 94
- MOLECULE: "O=C(O)CCC(=O)O"
  ASSAY_VALUE: 105
- MOLECULE: "CC(C)=CCC/C(C)=C/CC/C(C)=C/CC[C@]1(C)CCc2cc(O)c(C)c(C)c2O1"
  ASSAY_VALUE: 89
- MOLECULE: "CC(C)=CCC/C(C)=C/CC/C(C)=C/CC/C(C)=C/CO"
  ASSAY_VALUE: 83
- MOLECULE: "CC(C)=CCC/C(C)=C/CC/C(C)=C/CC[C@]1(C)CCc2c(C)c(O)cc(C)c2O1"
  ASSAY_VALUE: 68
- MOLECULE: "Cc1c(C)c2c(c(C)c1O)CC[C@@](C)(CCC[C@H](C)CCC[C@H](C)CCCC(C)C)O2"
  ASSAY_VALUE: 107
- MOLECULE: "Cc1c(C)c2c(c(C)c1OC(=O)CCC(=O)O)CC[C@@](C)(CCC[C@H](C)CCC[C@H](C)CCCC(C)C)O2 [TS, tocopherol succinate]"
  ASSAY_VALUE: 104
- MOLECULE: "CC(C)=CCC/C(C)=C/CC/C(C)=C/CC[C@]1(C)CCc2cc(O)cc(C)c2O1"
  ASSAY_VALUE: 83

----------
Test system: SW1990 pancreatic cancer cells
Experiment: MTS assay of SW1990 cultures, single 50 μM dose
Format: cell-based, human
Details: SW1990, 50 μM, 72 hours, run 3

- COMPOUND: "Cc1c(C)c2c(c(C)c1OC(=O)CCC(=O)O)CC[C@@](C)(CCC[C@H](C)CCC[C@H](C)CCCC(C)C)O2 [TS, tocopherol succinate]"
  MTS assay result, run 3: 1.02
- COMPOUND: "CC(C)=CCC/C(C)=C/CC/C(C)=C/CC[C@]1(C)CCc2c(C)c(O)cc(C)c2O1 [T3 beta, beta tocotrienol]"
  MTS assay result, run 3: 0.33
- COMPOUND: "CC(C)=CCC/C(C)=C/CC/C(C)=C/CC[C@]1(C)CCc2cc(O)cc(C)c2O1 [T3 delta, delta tocotrienol]"
  MTS assay result, run 3: 0.61
- COMPOUND: "CC(C)=CCC/C(C)=C/CC/C(C)=C/CC/C(C)=C/CO [GG, geranylgeraniol]"
  MTS assay result, run 3: 0.76

----------
Test system: SW1990 pancreatic cancer cells
Assay: MTS assay of SW1990 cultures, single 50 μM dose
Assay type: cell-based, human
Details: SW1990, 50 μM, 72 hours, run 3
Below: a set of entries, each annotated with reported MTS assay result, run 3.
OBSERVATION_TYPE: MTS assay result, run 3

- MOLECULE: "CC(C)=CCC/C(C)=C/CC/C(C)=C/CC[C@]1(C)CCc2cc(O)c(C)c(C)c2O1 [T3 gamma, gamma tocotrienol]"
  TARGET_OF_ASSAY: "SW1990 pancreatic cancer cells"
  OBSERVATION_TYPE: "MTS assay result, run 3"
  ASSAY_VALUE: 0.88
- MOLECULE: "O=C(O)CCC(=O)O [SA, succinic acid]"
  TARGET_OF_ASSAY: "SW1990 pancreatic cancer cells"
  OBSERVATION_TYPE: "MTS assay result, run 3"
  ASSAY_VALUE: 0.57
- MOLECULE: "Cc1c(C)c2c(c(C)c1O)CC[C@@](C)(CCC[C@H](C)CCC[C@H](C)CCCC(C)C)O2 [T alpha, alpha tocopherol]"
  TARGET_OF_ASSAY: "SW1990 pancreatic cancer cells"
  OBSERVATION_TYPE: "MTS assay result, run 3"
  ASSAY_VALUE: 0.46
- MOLECULE: "Cc1c(O)cc2c(c1C)O[C@](C)(CCC[C@H](C)CCC[C@H](C)CCCC(C)C)CC2 [T gamma]"
  TARGET_OF_ASSAY: "SW1990 pancreatic cancer cells"
  OBSERVATION_TYPE: "MTS assay result, run 3"
  ASSAY_VALUE: 0.46

----------
Tested on: SW1990 pancreatic cancer cells
Assay: MTS assay of SW1990 cultures, single 50 μM dose
Format: cell-based, human
Conditions: SW1990, 50 μM, 72 hours
OBSERVATION_TYPE: rel amnt (relative value set to the control)

- COMPOUND: "CC(C)=CCC/C(C)=C/CC/C(C)=C/CC/C(C)=C/CO"
  ASSAY_VALUE: 158
- COMPOUND: "O=C(O)CCC(=O)O"
  ASSAY_VALUE: 113
- COMPOUND: "CC(C)=CCC/C(C)=C/CC/C(C)=C/CC[C@]1(C)CCc2cc(O)cc(C)c2O1"
  ASSAY_VALUE: 132
- COMPOUND: "Cc1c(C)c2c(c(C)c1OC(=O)CCC(=O)O)CC[C@@](C)(CCC[C@H](C)CCC[C@H](C)CCCC(C)C)O2 [TS, tocopherol succinate]"
  ASSAY_VALUE: 207
- COMPOUND: "CC(C)=CCC/C(C)=C/CC/C(C)=C/CC[C@]1(C)CCc2cc(O)c(C)c(C)c2O1"
  ASSAY_VALUE: 177
- COMPOUND: "Cc1c(C)c2c(c(C)c1O)CC[C@@](C)(CCC[C@H](C)CCC[C@H](C)CCCC(C)C)O2"
  ASSAY_VALUE: 103
- COMPOUND: "Cc1c(O)cc2c(c1C)O[C@](C)(CCC[C@H](C)CCC[C@H](C)CCCC(C)C)CC2"
  ASSAY_VALUE: 108
- COMPOUND: "CC(C)=CCC/C(C)=C/CC/C(C)=C/CC[C@]1(C)CCc2c(C)c(O)cc(C)c2O1"
  ASSAY_VALUE: 69

----------
Below, each entry is listed with its recorded MTS assay result, run 2.
Tested on: MiaPaCa-2 cells
Assay: MTS assay of MiaPaCa2 cultures, single 50 μM dose
Type: cell-based, human
Conditions: MiaPaCa2, 50 μM, 48 hours, run 2

- MOLECULE: "CC(C)=CCC/C(C)=C/CC/C(C)=C/CC[C@]1(C)CCc2cc(O)cc(C)c2O1"
  MTS assay result, run 2: 0.22
- MOLECULE: "Cc1c(O)cc2c(c1C)O[C@](C)(CCC[C@H](C)CCC[C@H](C)CCCC(C)C)CC2"
  MTS assay result, run 2: 0.265
- MOLECULE: "Cc1c(C)c2c(c(C)c1OC(=O)CCC(=O)O)CC[C@@](C)(CCC[C@H](C)CCC[C@H](C)CCCC(C)C)O2 [TS, tocopherol succinate]"
  MTS assay result, run 2: 0.254
- MOLECULE: "CC(C)=CCC/C(C)=C/CC/C(C)=C/CC/C(C)=C/CO"
  MTS assay result, run 2: 0.194

----------
Listed below: MTS assay result, run 3 values for each entry.
Tested on: MiaPaCa-2 cells
Experiment: MTS assay of MiaPaCa2 cultures, single 50 μM dose
Format: cell-based, human
Settings: MiaPaCa2, 50 μM, 48 hours, run 3
OBSERVATION_TYPE: MTS assay result, run 3

- COMPOUND: "CC(C)=CCC/C(C)=C/CC/C(C)=C/CC[C@]1(C)CCc2cc(O)c(C)c(C)c2O1 [T3 gamma, gamma tocotrienol]"
  TARGET_OF_ASSAY: "MiaPaCa-2 cells"
  OBSERVATION_TYPE: "MTS assay result, run 3"
  ASSAY_VALUE: 0.111
- COMPOUND: "CC(C)=CCC/C(C)=C/CC/C(C)=C/CC[C@]1(C)CCc2c(C)c(O)cc(C)c2O1 [T3 beta, beta tocotrienol]"
  TARGET_OF_ASSAY: "MiaPaCa-2 cells"
  OBSERVATION_TYPE: "MTS assay result, run 3"
  ASSAY_VALUE: 0.227
- COMPOUND: "CC(C)=CCC/C(C)=C/CC/C(C)=C/CC/C(C)=C/CO [GG, geranylgeraniol]"
  TARGET_OF_ASSAY: "MiaPaCa-2 cells"
  OBSERVATION_TYPE: "MTS assay result, run 3"
  ASSAY_VALUE: 0.181
- COMPOUND: "O=C(O)CCC(=O)O [SA, succinic acid]"
  TARGET_OF_ASSAY: "MiaPaCa-2 cells"
  OBSERVATION_TYPE: "MTS assay result, run 3"
  ASSAY_VALUE: 0.333
- COMPOUND: "Cc1c(O)cc2c(c1C)O[C@](C)(CCC[C@H](C)CCC[C@H](C)CCCC(C)C)CC2 [T gamma]"
  TARGET_OF_ASSAY: "MiaPaCa-2 cells"
  OBSERVATION_TYPE: "MTS assay result, run 3"
  ASSAY_VALUE: 0.304
- COMPOUND: "Cc1c(C)c2c(c(C)c1OC(=O)CCC(=O)O)CC[C@@](C)(CCC[C@H](C)CCC[C@H](C)CCCC(C)C)O2 [TS, tocopherol succinate]"
  TARGET_OF_ASSAY: "MiaPaCa-2 cells"
  OBSERVATION_TYPE: "MTS assay result, run 3"
  ASSAY_VALUE: 0.262
- COMPOUND: "Cc1c(C)c2c(c(C)c1O)CC[C@@](C)(CCC[C@H](C)CCC[C@H](C)CCCC(C)C)O2 [T alpha, alpha tocopherol]"
  TARGET_OF_ASSAY: "MiaPaCa-2 cells"
  OBSERVATION_TYPE: "MTS assay result, run 3"
  ASSAY_VALUE: 0.342
- COMPOUND: "CC(C)=CCC/C(C)=C/CC/C(C)=C/CC[C@]1(C)CCc2cc(O)cc(C)c2O1 [T3 delta, delta tocotrienol]"
  TARGET_OF_ASSAY: "MiaPaCa-2 cells"
  OBSERVATION_TYPE: "MTS assay result, run 3"
  ASSAY_VALUE: 0.218
